target: T1, Recombinant soluble E protein (0.8E-His) from DENV-4 (DENV-4, UniProt P09866 280-674); assay: SPR, Biacore T200
T1 construct: also called DENV-4 E protein; DV4
EXPERIMENTAL_ENDPOINT: binding result

{"BINDER": "DG_3CH1046-SG182/3CL633-SK1 (antibody, V domains shown) VH: QVQLVQSGAEVKKPGASVKVSCKASGYTFTSYYMHWVRQAPGQGLEWMGVINPRGGSRRSAQKFQGRVTMTRDTSTSTVYMELSSLRSEDTAVYYCARGGRALFYDSYTTPFDGGSWWFDPWGQGSLVTVSS VL: DIQLTQSPSSLSASVGDRVTITCQASQDIRKYLNWYQQKPGKAPKLLIYDASNLKTGVPSRFSGSGSGTDFTLTISSLQPEDVATYYCQQFDDLPITFGQGTRLQIKR", "EXPERIMENTAL_ENDPOINT": "binding result", "OBSERVED": "binds"}
{"BINDER": "DG_3CH953-SG182/3CL668-SK1 (antibody, V domains shown) VH: QVQLVQSGPDVEKPGASVKVSCKASGYTFTSNYIHWVRQAPGQGLEWMGVINPRGGSRRSAQKFQGRITMTRDTSTSTVYMELSSLRSEDTAVYYCARGGRALFYDSYTTPFDGGSWWFDPWGQGSLVTVSS VL: DIQLTQSPSSLSASVGDRVTITCQASQDIRKYLNWYQQKPGKAPKLLIYDASNLKTGVPSRFSGSGSGTDFTLTISSLQPEDVATYYCQQFEDLPITFGQGTRLQIKR", "EXPERIMENTAL_ENDPOINT": "binding result", "OBSERVED": "binds"}
{"BINDER": "DG_3CH989-SG182/3CL666-SK1 (antibody, V domains shown) VH: QVQLVQSGAEVKKPGASVKVSCKASGYTFTSNYIHWVRQAPGQGLEWMGVINPRGGSRRSAQKFQGRVTMTRDTSTSTVYMELSSLRSEDTAVYYCARGGRALFYDSYTTPFDGGSWWFDPWGQGSLVTVSS VL: DIQLTQSPSSLSASVGDRVTITCQASQEIRKYLNWYQQKPGKAPKLLIYDASNLKTGVPSRFSGSGSGTDFTLTISSLQPEDVATYYCQQFDDLPITFGQGTRLQIKR", "EXPERIMENTAL_ENDPOINT": "binding result", "OBSERVED": "binds"}
